target: CBG (corticosteroid-binding globulin, transcortin) (Sus scrofa); construct: quantity of cortisol specifically fixed to the glycoproteins adsorbed on the gel; from tissue; host or cells: pig blood plasma (Large White and Meishan, n = 12 each); test: solid phase fixation (radiobinding) test of cortisol binding to plasma CBG, Concavalin A-Sepharose, Scatchard analysis; set-up: species or system pig; details: Meishan pigs, n = 12, plasma CBG, 4° C.; read-out: Kd (affinity of CBG for cortisol)
Sequence (Q9GK37 23-406): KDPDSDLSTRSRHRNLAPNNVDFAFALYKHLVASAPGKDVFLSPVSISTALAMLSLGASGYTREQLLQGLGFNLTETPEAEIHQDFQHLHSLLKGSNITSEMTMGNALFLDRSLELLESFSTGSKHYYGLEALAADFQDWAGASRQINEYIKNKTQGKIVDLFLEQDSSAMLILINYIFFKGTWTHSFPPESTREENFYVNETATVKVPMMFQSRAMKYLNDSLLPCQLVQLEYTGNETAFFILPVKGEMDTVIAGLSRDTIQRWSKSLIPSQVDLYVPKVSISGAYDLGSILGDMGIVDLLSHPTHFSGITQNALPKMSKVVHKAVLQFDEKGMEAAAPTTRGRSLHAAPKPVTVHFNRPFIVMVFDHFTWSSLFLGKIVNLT
resultType: pKd
Convention used: pKd is expressed as -log10 of the molar concentration.

Ask: Give pKd for C[C@]12CCC(=O)C=C1CC[C@@H]1[C@@H]2[C@@H](O)C[C@@]2(C)[C@H]1CC[C@]2(O)C(=O)CO [cortisol] tested on CBG (corticosteroid-binding globulin, transcortin) (Sus scrofa).
Result: 9.34
